// provenance: the Deep4Chem optical property database

- method.notes: photoluminescence quantum yield (fraction); solvent given as SMILES
- details: in CCOC(C)=O
The label is Fulfilled for photoluminescence quantum yield below 0.2 and Not fulfilled for photoluminescence quantum yield equal to or exceeding 0.2.

compound	category
COc1ccc(C2CC(c3ccc(O)cc3)=NN2c2ccc(S(N)(=O)=O)cc2)cc1 (stereo not drawn)	Not fulfilled
COc1cc(N(c2ccccc2)c2ccccc2)ccc1C=C(C#N)C#N	Fulfilled
CCn1c2ccccc2c2cc(/C=C/c3cc(/C=C/c4ccc5c(c4)c4ccccc4n5CC)ncn3)ccc21	Not fulfilled
CCCCN1c2ccccc2Sc2cc(/C=C/C3=Nc4ccc5ccccc5c4C3(C)C)ccc21	Fulfilled
COC1(OC)C2(Cl)c3nc4cc(-c5cccs5)ccc4nc3C1(Cl)C1C[C@H]3[C@@H](CC12)C1(Cl)c2nc4ccc(-c5cccs5)cc4nc2C3(Cl)C1(OC)OC (stereo partly drawn)	Not fulfilled
N#Cc1coc2ccccc2c1=O	Fulfilled
CN1C(C(=O)Nc2ccccn2)=C(O)c2sccc2S1(=O)=O	Fulfilled
N#Cc1ccc2c(c1)CCc1nc(-c3ccc([N+](=O)[O-])cc3)c3c(c1-2)CCc1cc(C#N)ccc1-3	Fulfilled
CCc1c(C)c2n(c1C)[B-](F)(F)[N+]1=C(NCc3ccc(OC)cc3)C=CC1=C2C	Not fulfilled
CCn1c(-c2ccc(-c3cccc4ccccc34)cc2)c(-c2ccc3ccccc3c2)c(-c2ccc3ccccc3c2)c1-c1ccc(-c2cccc3ccccc23)cc1	Not fulfilled
COc1nc(Cl)nc(Nc2ccc3c4cccc5cccc(c6cccc2c63)c54)n1	Not fulfilled
CCN(CC)c1ccc2c(c1)oc(=O)c1cnc3c(cnn3-c3ccccc3)c12	Not fulfilled
CCn1c2ccccc2c2cc(-c3cc(-c4ccc5c(c4)c4ccccc4n5CC)nc(S(C)(=O)=O)n3)ccc21	Not fulfilled
O=C1c2ccc3c4ccc5c6c(ccc(c7ccc(c2c37)C(=O)N1c1ccncc1)c64)C(=O)N(c1ccncc1)C5=O	Not fulfilled
O=S(=O)([O-])c1ccc(O)c2ccccc12	Fulfilled
COc1nc(Nc2ccc3cc4ccccc4cc3c2)nc(OC)n1	Not fulfilled
Cc1ccc(C2=C3C=CC(C#Cc4ccccc4)=[N+]3[B-](F)(F)n3c(C#Cc4ccccc4)ccc32)cc1	Not fulfilled
COC(=O)C(Cc1ccc2oc(-c3ccc(N(C)c4ccccc4)cc3)nc2c1)NC(=O)OC(C)(C)C (stereo not drawn)	Not fulfilled
